Hey, just so you know, these numbers are from patent US9346809B2.

molecular target: JAK2 (catalytic domain, His-tag) (Homo sapiens, UniProt O60674); construct: All four purified enzymes contain only the catalytic domain; His (N); purchased Carna Biosciences, Inc; host or cells: baculovirus expression system; test: JAK kinase assay (HTRF, phosphorylation of TK substrate-biotin), JAK2; assay type: biochemical; conditions: ATP at Km (4 μM); read-out: JAK2 kinase inhibitory activity (EC50 indicator)
Sequence (O60674 849-1124 limits assumed): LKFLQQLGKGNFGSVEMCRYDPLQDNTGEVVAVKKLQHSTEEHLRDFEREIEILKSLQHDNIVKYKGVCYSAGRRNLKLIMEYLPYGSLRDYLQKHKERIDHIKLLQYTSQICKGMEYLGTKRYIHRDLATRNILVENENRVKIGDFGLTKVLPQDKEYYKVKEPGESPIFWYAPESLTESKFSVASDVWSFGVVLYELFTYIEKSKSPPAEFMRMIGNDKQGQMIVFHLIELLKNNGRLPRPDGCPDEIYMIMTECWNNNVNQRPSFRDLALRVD
pEC50: −log10 of the molar value.
What pEC50 was measured for each of the following?

**Query** Kindly state the measured pEC50 obtained for O=C(Cc1ccncc1)N1CCN(c2ncnc3[nH]ccc23)CC12CC2 with JAK2 (catalytic domain, His-tag) (Homo sapiens, UniProt O60674).
**Result** > 7.00

**Query** What do we get for O=C(C(=O)N1CCN(c2ncnc3[nH]ccc23)CC12CC2)c1cccs1 ?
**Result** > 7.00

**Query** What do we get for N#Cc1csc(C(=O)N2CCN(c3ncnc4[nH]ccc34)CC23CC3)c1 ?
**Result** > 7.00

**Query** What do we get for O=C(CCC(F)(F)F)N1[C@@H]2CC[C@H]1CN(c1ncnc3[nH]ccc13)C2 ?
**Result** > 7.00

**Query** What do we get for O=C(CCC(F)(F)F)N1CCN(c2ncnc3[nH]ccc23)CC12CC2 ?
**Result** > 7.00

**Query** What do we get for O=C(c1cc2cc(F)ccc2[nH]1)N1C2CCC1CN(c1ncnc3[nH]ccc13)C2 ?
**Result** > 7.00

**Query** What do we get for Cc1ccc(C(=O)N2CCN(c3ncnc4[nH]ccc34)CC23CC3)cc1C(=O)Nc1cccc(C(F)(F)F)c1 ?
**Result** < 6.30

**Query** What do we get for CC1CN(C(=O)Cc2cccc(C#N)c2)C2(CC2)CN1c1ncnc2[nH]ccc12 (centres unmarked) ?
**Result** > 7.00

**Query** What do we get for O=C(Cc1cccnc1)N1[C@@H]2CC[C@@H]1CN(c1ncnc3[nH]ccc13)C2 ?
**Result** 6.30 to 7.00

**Query** What do we get for N#CCCN1CCC(C(=O)N2CCN(c3ncnc4[nH]ccc34)CC23CC3)CC1 ?
**Result** 6.30 to 7.00

**Query** What do we get for O=C(c1cccc(O)n1)N1CCN(c2ncnc3[nH]ccc23)CC12CC2 ?
**Result** > 7.00
